All figures here come from ChEMBL document CHEMBL1806376.

test system: Staphylococcus aureus; test: Antibacterial activity against Staphylococcus aureus ATCC 25923 by broth microdilution method; format: functional; details: Staphylococcus aureus, ATCC 25923; read-out: MIC
Here the recorded MIC is given for each entry.
quantity: MIC (µg/mL)

>  <compound>
CO[C@H]1CCCCCCCCC[C@@H](C)OC(=O)C2OC2C1=O (single isomer, unassigned; diastereomer 1)

>  <readoutValue>
64

$$$$
>  <compound>
CC(=O)O[C@H]1CCCCCCCCC[C@@H](C)OC(=O)/C=C/C1=O

>  <readoutValue>
1

$$$$
>  <compound>
CO[C@H]1CCCCCCCCC[C@@H](C)OC(=O)C(Sc2ccccc2)CC1=O (stereo not given in full)

>  <readoutValue>
1

$$$$
>  <compound>
CO[C@H]1CCCCCCCCC[C@@H](C)OC(=O)C(S(=O)(=O)c2ccccc2)CC1=O (stereo not given in full)

>  <readoutValue>
1

$$$$
>  <compound>
CO[C@H]1CCCCCCCCC[C@@H](C)OC(=O)/C=C/C1=O

>  <readoutValue>
1

$$$$

---

system: Staphylococcus aureus; test: Antibacterial activity against methicillin-resistant Staphylococcus aureus Sa2 by broth microdilution method; assay type: functional; conditions: Staphylococcus aureus, Sa2; read-out: MIC
quantity: MIC (µg/mL)

>  <compound>
C[C@@H]1CCCCCCCCC[C@H](OC(=O)CCC(=O)OC(C)(C)C)C(=O)CC(N2CCN(C)CC2)C(=O)O1 (stereo not given in full)

>  <quantity>
MIC

>  <qualifierOperator>
=

>  <readoutValue>
2

$$$$
>  <compound>
CO[C@H]1CCCCCCCCC[C@@H](C)OC(=O)C(S(=O)(=O)c2ccccc2)CC1=O (stereo not given in full)

>  <quantity>
MIC

>  <qualifierOperator>
=

>  <readoutValue>
2

$$$$
>  <compound>
CO[C@H]1CCCCCCCCC[C@@H](C)OC(=O)/C(C)=C/C1=O

>  <quantity>
MIC

>  <qualifierOperator>
>

>  <readoutValue>
64

$$$$
>  <compound>
CO[C@H]1CCCCCCCCC[C@@H](C)OC(=O)/C=C/C1=O

>  <quantity>
MIC

>  <qualifierOperator>
=

>  <readoutValue>
0.5

$$$$
>  <compound>
C[C@@H]1CCCCCCCCC[C@H](OC(=O)CCC(=O)OC(C)(C)C)C(=O)c2[nH]ncc2C(=O)O1

>  <quantity>
MIC

>  <qualifierOperator>
>

>  <readoutValue>
64

$$$$

---

Here the recorded MIC is given for each entry.
tested on: Staphylococcus aureus; test: Antibacterial activity against methicillin-resistant Staphylococcus aureus Sa2 by broth microdilution method; format: functional; conditions: Staphylococcus aureus, Sa2; read-out: MIC

>  <compound>
CC(=O)N(CCOc1ccccc1)C1CC(=O)[C@@H](OC(=O)CCC(=O)OC(C)(C)C)CCCCCCCCC[C@@H](C)OC1=O (stereo partly drawn)

>  <MIC>
> 32 µg/mL

$$$$
>  <compound>
C[C@@H]1CCCCCCCCC[C@H](O)C(=O)/C=C/C(=O)O1

>  <MIC>
2 µg/mL

$$$$
>  <compound>
COC1CCCCCCCCC[C@@H](C)NC(=O)/C=C/C1=O (single isomer, unassigned; diastereomer 1)

>  <MIC>
1 µg/mL

$$$$

---

test system: Staphylococcus aureus; assay: Antibacterial activity against Staphylococcus aureus ATCC 25923 by broth microdilution method; assay type: functional; conditions: Staphylococcus aureus, ATCC 25923; read-out: MIC
quantity: MIC (µg/mL)

>  <compound>
C[C@@H]1CCCCCCCCC[C@H](O)C(=O)/C=C/C(=O)O1

>  <qualifierOperator>
=

>  <readoutValue>
2

$$$$
>  <compound>
C[C@@H]1CCCCCCCCC[C@H](OC(=O)CCC(=O)OC(C)(C)C)C(=O)c2[nH]ncc2C(=O)O1

>  <qualifierOperator>
>

>  <readoutValue>
64

$$$$
>  <compound>
C[C@@H]1CCCCCCCCC[C@H](OC(=O)CCC(=O)O)C(=O)/C=C/C(=O)O1

>  <qualifierOperator>
=

>  <readoutValue>
4

$$$$
>  <compound>
C[C@@H]1CCCCCCCCC[C@H](O)C(=O)CC(SCC(F)(F)F)C(=O)O1 (stereo not given in full)

>  <qualifierOperator>
=

>  <readoutValue>
1

$$$$
>  <compound>
CO[C@H]1CCCCCCCCC[C@@H](C)OC(=O)/C(C)=C/C1=O

>  <qualifierOperator>
>

>  <readoutValue>
64

$$$$
